Hi there, I'd appreciate the recorded activation for every entry that follows.
system: Aryl hydrocarbon receptor (Homo sapiens)
assay: AHR activators, primary screen, cell-based, luminescence, luciferase reporter, human (AID 2796);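 further: 0% = vehicle wells and 100% = reference agonist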
assayContext: AHR-responsive luciferase reporter cells, at 5 µM, hits give high values
Hit rate of the full screen: of about 320,000 compounds, about 8,000 (2.5%) were called active. The sample as a whole holds a higher share of actives than the screen did.
Numbers only, in %.

A selection of reference data follows.
> print(dat)
                             chemicalsmiles  endpointresult
1  Cn1c2ccccc2n2c(=O)c(=O)n(CC(=O)c3ccc(F)cc3)nc12            0.34
2    COc1cccc(NC(=O)CSc2nnc(-c3cccnc3)o2)c1            29.8
3  O=C(Nc1ccc(C(F)(F)F)cc1)c1cccc(-n2cnnn2)c1             102
4          O=C(Nc1cccc(-n2cnnn2)c1)c1cccnc1            4.54
5      COc1ccccc1-c1nnc(SCC(=O)Nc2ccccc2)o1            75.5

Give me activation for each of these molecules, listed below.
1. O=C(NNC(=O)c1ccc(Cl)nc1)c1ccc(Br)cc1
2. CCCCCC(=O)N1CCN(S(=O)(=O)c2ccc3c(c2)OCCCO3)CC1
3. Fc1ccccc1OCCSc1nc2ccccc2o1
4. CC(C)N(C(=O)CSc1nnc(NC2CC2)s1)c1ccccc1

-2.45
1.73
-9.22
7.53

Give me activation for each of these molecules, listed below.
1. Cc1nc(-c2ccc(Cl)cc2)sc1C(=O)CBr
2. Cc1cc(C)nc(Nc2ncn[nH]2)n1
3. Cc1cccc(NC(=O)c2nnn(-c3cccc(C(F)(F)F)c3)c2N)c1

1. 54.9
2. 2.66
3. -4.69
